Test: Plasma pharmacokinetics by LC-MS/MS
Assay type: in vivo, human
Details: human, plasma, oral, Total, all dose levels (n=55); geom. mean (geom. SD); read-out: THU Vz/F
Measured endpoint: Vd/F (L)
Numbers only, in L.

Input line: Query (compound): O=C1NC(O)CCN1[C@@H]1O[C@H](CO)[C@@H](O)[C@H]1O (stereo partly shown) [THU, tetrahydrouridine] ; field requested: Vd/F
Output line: 1830

====

Assay: Plasma pharmacokinetics by LC-MS/MS
Assay type: in vivo, human
Settings: human, plasma, po, 6000 mg, DL10-DL11: THU 6000 mg oral twice daily (n=11); geom. mean (geom. SD); read-out: THU Vz/F
Measured endpoint: Vd/F (L)
Answers are plain numbers, in L.

Input line: Query (compound): O=C1NC(O)CCN1[C@@H]1O[C@H](CO)[C@@H](O)[C@H]1O (stereo partly shown) [THU, tetrahydrouridine] ; field requested: Vd/F
Output line: 2040

====

Test: Plasma pharmacokinetics by LC-MS/MS
Type: in vivo, human
Conditions: human, plasma, po, DL1: FdCyd 30 mg + THU 3000 mg oral (n=3); geom. mean (geom. SD); read-out: FdCyd Vz/F
Description: Blood specimens for PK analysis were collected on Cycle 1 Day 1 (C1D1) prior to THU administration and then at 15, 30, and 45 min and 1, 2, 3, 4, 5, and 6 h after THU administration, as well as on C1D2 and C1D3 prior to and 2 h after THU administration. […] All specimens for PK analysis were processed and analyzed by LC-MS/MS as described previously, and Phoenix WinNonlin software was used for data analysis.
Measured endpoint: Vd/F (L)
One number for each entry, in L.

Input line: Query (compound): Nc1nc(=O)n([C@H]2C[C@H](O)[C@@H](CO)O2)cc1F ; field requested: Vd/F
Output line: 187

====

Assay: Plasma pharmacokinetics by LC-MS/MS
Type: in vivo, human
Settings: human, plasma, po, DL11: FdCyd 80 mg + THU 6000 mg oral (n=3); geom. mean (geom. SD); read-out: FdCyd t½ (converted)
Measured endpoint: half-life (min)
Answers are plain numbers, in min.

Input line: Query (compound): Nc1nc(=O)n([C@H]2C[C@H](O)[C@@H](CO)O2)cc1F ; field requested: half-life
Output line: 30

====

Assay: Plasma pharmacokinetics by LC-MS/MS
Format: in vivo, human
Conditions: human, plasma, po, 3000 mg, DL1-DL9: THU 3000 mg oral once daily (n=44); geom. mean (geom. SD); read-out: THU Tmax
Measured endpoint: Tmax

Input line: Query (compound): O=C1NC(O)CCN1[C@@H]1O[C@H](CO)[C@@H](O)[C@H]1O (stereo partly shown) [THU, tetrahydrouridine] ; field requested: Tmax
Output line: 3 h

====

Experiment: Plasma pharmacokinetics by LC-MS/MS
Type: in vivo, human
Settings: human, plasma, po, DL10: FdCyd 60 mg + THU 6000 mg oral (n=8); geom. mean (geom. SD); read-out: FdCyd AUC0-inf
Measured endpoint: AUC(0-inf) (ng·h/mL)
Answers are plain numbers, in ng·h/mL.

Input line: Query (compound): Nc1nc(=O)n([C@H]2C[C@H](O)[C@@H](CO)O2)cc1F ; field requested: AUC(0-inf)
Output line: 630

====

Assay: Plasma pharmacokinetics by LC-MS/MS
Type: in vivo, human
Conditions: human, plasma, po, All FdCyd doses + THU 6000 mg oral (n=11); geom. mean (geom. SD); read-out: FdCyd Tmax
Method: Blood specimens for PK analysis were collected on Cycle 1 Day 1 (C1D1) prior to THU administration and then at 15, 30, and 45 min and 1, 2, 3, 4, 5, and 6 h after THU administration, as well as on C1D2 and C1D3 prior to and 2 h after THU administration. […] All specimens for PK analysis were processed and analyzed by LC-MS/MS as described previously, and Phoenix WinNonlin software was used for data analysis.
Measured endpoint: Tmax (min)
Give bare numbers, in min.

Input line: Query (compound): Nc1nc(=O)n([C@H]2C[C@H](O)[C@@H](CO)O2)cc1F [FdCyd, 5-fluoro-2’-deoxycytidine] ; field requested: Tmax
Output line: 54
